target: Bcl-2-like protein 1 (Homo sapiens) (UniProt Q07817); experiment: Bcl-xL/Bim BH3 interaction blockers – biochemical, fluorescence polarization, HTS, primary screen (AID 2129); details: GST-Bcl-xL / FITC-Bim BH3 peptide fluorescence polarization; at 10.9 µM;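 also: 0% = DMSO wells and 100% = unlabeled Bim-BH3 peptide competitor; inhibitors lower millipolarization by displacing the labeled peptide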
Sequence (Q07817 whole entry, looked up): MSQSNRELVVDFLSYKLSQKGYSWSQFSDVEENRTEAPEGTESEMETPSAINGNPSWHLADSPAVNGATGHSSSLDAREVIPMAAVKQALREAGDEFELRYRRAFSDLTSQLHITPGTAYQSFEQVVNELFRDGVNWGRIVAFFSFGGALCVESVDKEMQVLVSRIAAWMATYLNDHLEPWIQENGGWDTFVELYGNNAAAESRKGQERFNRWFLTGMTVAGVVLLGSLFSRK
In all, about 320,000 compounds went through this assay and about 2,200 (0.69%) were called active.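 The calls were made as follows: active = inhibition above the mean of all tested compounds plus 3 SD, cutoff set per campaign (cut at about 30% in these data); inactive = the rest.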 The sample as a whole holds a higher share of actives than the screen did.
Possible outcomes: class 1 = active, class 0 = inactive

# compound, qualitative label
measured = [
    ("CCCOCC(O)CC(CC)C(=O)NNC(=S)Nc1ccccc1 (centres undefined)", "class 0"),
    ("CC1CC(C)CN(S(=O)(=O)c2cccc(C(=O)N3C(=O)c4cccc(N)c4C3=O)c2)C1 (centres undefined)", "class 1"),
    ("COc1cc(C(=O)N2C(=O)c3cccc(N)c3C2=O)cc(OC)c1OC", "class 0"),
    ("Cc1c(NC(=O)CSc2nnc(-c3cccnc3)n2N)c(=O)n(-c2ccccc2)n1C", "class 0"),
    ("O=C(C1=C(O)C(=O)N(Cc2ccccc2)C1c1ccco1)c1ccco1 (centres undefined)", "class 0"),
    ("CCN(CC)CCNc1nc(-c2ccc(OC(F)F)cc2)c(C)s1", "class 0"),
    ("COCCOC(=O)c1sc(=S)n(CCOC)c1N", "class 1"),
    ("CC1CCN(C(=O)COC(=O)c2cc(=O)[nH]c3ccccc23)CC1", "class 0"),
    ("O=c1ccc2c(-c3ccccc3S(=O)(=O)O)c3ccc(O)c(O)c3oc-2c1O", "class 1"),
    ("Cc1ccc(S(=O)(=O)N(Cc2ccc(Cl)cc2)c2ccccc2C(=O)NCc2cccnc2)cc1", "class 0"),
    ("CCOC(=O)c1cc2n(c1N)-c1ccccc1C2=O", "class 1"),
    ("CCOC(=O)c1cc2c(=O)n3ccccc3nc2n(CC(C)C)c1=NC(=O)c1c(-c2c(F)cccc2Cl)noc1C", "class 0"),
    ("O=C(C1=C(O)C(=O)N(c2ncccn2)C1c1cccs1)c1ccco1 (centres undefined)", "class 1"),
    ("CCOC(=O)[C@@H]1[C@H]2COc3cc(OC)ccc3[C@@H]2N2C(=O)N(c3cccc(C)c3)C(=O)[C@@]12C", "class 0"),
    ("COC(=O)c1sc(=S)n(-c2ccc(Cl)cc2)c1C", "class 0"),
    ("COc1ccccc1C(=O)Nc1ccccc1C(=O)Nc1ccccc1", "class 0"),
    ("CN(CC(=O)Nc1ccc(Cl)c(C(F)(F)F)c1)C(=O)CCC(=O)c1ccccc1", "class 1"),
    ("Cc1cccc(NC(=O)c2cc(S(=O)(=O)N3CCC4(CC3)OCCO4)ccc2F)c1", "class 0"),
    ("Cc1ccc(C(=O)N2CCCC2)c(F)c1F", "class 0"),
    ("COc1ccccc1C(=O)N/C(=C/c1ccc2c(c1)OCO2)C(=O)Nc1cccc(C(=O)O)c1", "class 0"),
    ("Clc1cc(NC2CCCCC2)ncn1", "class 0"),
    ("CCc1ccc(NC(=O)Nc2ccncc2)cc1", "class 0"),
    ("CCCCCN(C(=O)NC(=O)Nc1ccccc1C)S(C)(=O)=O", "class 0"),
    ("CCOc1ccc(-n2c(SCC(=O)NC3CCS(=O)(=O)C3)nnc2-c2cccnc2)cc1 (centres undefined)", "class 0"),
    ("CN1c2ccc(C=O)c3c(C=O)ccc(c23)N(C)C1(C)C", "class 1"),
    ("CCOC(=O)c1ccc(NC(=O)c2c(NCc3ccccc3)[nH]c(=O)[nH]c2=O)cc1", "class 0"),
    ("CCOC(=O)c1ccccc1CN1C(=O)c2ccccc2S1(=O)=O", "class 0"),
    ("CN(C(=O)COC(=O)CCCc1c[nH]c2ccccc12)c1c(N)n(Cc2ccccc2)c(=O)[nH]c1=O", "class 0"),
    ("CC(C)(C)c1cc2cccnc2n1Cc1cccc(F)c1", "class 0"),
    ("CN1CCN(S(=O)(=O)c2cccc(C(=O)O)c2)CC1", "class 0"),
    ("CCOC(=O)c1c(N)sc(C(C)=O)c1C", "class 0"),
    ("O=C(CSC(=S)N1CCCCC1)c1c(F)cccc1F", "class 0"),
    ("Cc1ccc(CSCC(=O)N(C)CC(=O)Nc2ccc(C)cc2)cc1", "class 0"),
    ("Cn1c(C(=O)N2CCCC(C(=O)NCc3ccccc3)C2)cc2sccc21 (centres undefined)", "class 0"),
    ("Cc1ccc(SCC(=O)Nc2nncs2)cc1", "class 0"),
    ("CCc1c(-c2ccccc2)nc(N)c(C#N)c1-c1cccs1", "class 0"),
    ("Cc1ccc(-c2noc(C3CCCN(C(=O)c4cccc(Cl)c4)C3)n2)o1 (centres undefined)", "class 0"),
    ("CN(C)c1ccc(Nc2c3c4c(cccc4n(C)c2=O)C(=O)c2ccccc2-3)cc1", "class 1"),
    ("O=c1c2cc(-c3ccccc3)sc2nc2n1N=C(c1cccs1)CS2", "class 0"),
    ("O=C1COc2ccc(C(=O)CSc3ccc(Br)cc3)cc2N1", "class 0"),
    ("CCCn1c(O)c(CN2CCCC(C)C2)c(C)c(C#N)c1=O (centres undefined)", "class 1"),
    ("Cc1oc2c(C)c3oc(=O)c(CC(=O)N[C@@H](CC(C)C)C(=O)N[C@@H](Cc4ccccc4)C(=O)O)c(C)c3cc2c1C", "class 0"),
    ("COc1cccc2c1OCC(CN1CCN(C3CCCCC3)C(CCO)C1)=C2 (centres undefined)", "class 0"),
    ("Cc1cccc(C)c1NC(=O)CN(C)C(=O)CCC(=O)c1ccccc1", "class 0"),
]
